- Measured on: T1, His/Avi-CynoIL18BP (recombinant cynomolgus IL-18BP with His and Avi tags) (cynomolgus monkey)
- T1 construct: also called cynomolgus IL-18BP-Avi-His
- T1 chain: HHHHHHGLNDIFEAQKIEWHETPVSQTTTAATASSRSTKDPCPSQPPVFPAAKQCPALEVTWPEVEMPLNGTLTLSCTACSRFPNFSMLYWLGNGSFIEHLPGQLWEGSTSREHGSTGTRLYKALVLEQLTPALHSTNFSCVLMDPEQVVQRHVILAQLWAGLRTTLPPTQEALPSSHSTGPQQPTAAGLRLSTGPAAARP
- Protocol details: blocking ELISA, competitor rhesus IL-18
Quantity: blocking ELISA signal normalized to isotype control (=1)

Name the reported blocking ELISA signal normalized to isotype control (=1) value associated with the binder anti-IL18BP antibody BP-02 (antibody, human IgG1, V domains shown) VH: EVQLQQSGPELVKPGASVKIPCKASGYTFTDYNMDWVKQSHGKSLEWIGNINTNNGGTVYNQKFKGKATLTVDKSSSTAYMELRSLTSEDTAVYYCARSDTTVVASRYYAMDYWGQGTSVTVSL VL: DIVLTQSPASLAMSLGKRATISCRASESVSIIATNLIHWYQQKPGQPPKLLIYHASNLETGVPARFSGSGSRTDFTLTIDPVEKDDVAIYYCLQSRKIPPTFGGGTKLEIK
0.973 ratio to isotype control

// repeat for anti-IL18BP antibody BP-03 (antibody, human IgG1, V domains shown) VH: EVQLQQSGPELVKPGASVKIPCKASGYTFTDYNMDWVKQSHGKSLEWIGNINTDNGGTVYNQKFKGKATLTVDQSSSTAYMELRSLTSEDTAVYYCARSDTTVVASRYYAMDYWGQGTSVTVSS VL: DIVLTQSPASLAMSLGKRATISCRASESVSIIGTNLIHWYQQKPGQPPKLLIYHASNLETGVPARFSGSGSRTDFTLTIDPVEEDDVAIYYCLQSRKIPPTFGGGTKLEIK and report
0.996 ratio to isotype control

// repeat for anti-IL18BP antibody BP-04 (antibody, V domains shown, also called BP-04 (hybridoma); BP-04 (parental)) VH: HVHLHQSGAELVRPGVSVKISCRGSGYTFTDYDVHWVKQSHAKSLEWIGVISTYYGDVGYNQEFKGKATMTLDKSSSTSYLELARLTSEDSAIYYCARSGTYYYGTRESHALDYWGQGTSVTVSS VL: DIQMTQSPASLSVSVGETVTITCRTSDNVYSNLAWYQQKQGKSPQLLVYGAINLADGVPSRFSGSGSDTQYSLKINNLQSEDFGSYYCQHFWGNPYTFGGGTKLEIK and report
0.943 ratio to isotype control

// repeat for anti-IL18BP antibody BP-11 (antibody, human IgG1, V domains shown) VH: QVQLQQSGAELAKPGASVKMSCKASGYTFTNYWMHWVKQRPGQGLEWIGHIDPSTGYTEYNQKFKDKATLTADKSSSTAYMQLSSLTSEDSAVYYCARGLGGLFGYWGQGTLVTVSA VL: DIQMTQSPSSLSASLGGKVTITCKASQDINKFIAWYQHKPGKGPRLLIHHTSTLMPGIPSRFSGSGSGREYSFSISNLEPEDIATYYCLQYDNLLWTFGGGTKLEIR and report
0.49 ratio to isotype control

// repeat for anti-IL18BP antibody BP-13 (antibody, human IgG1, V domains shown) VH: QVQLQQSGAELVRPGASVTLSCKASGYTFTDYEMHWVKQTPVHGLEWIGPIDPETGDTAYNQKFKGQATLTADKSSSTAYMELSSLTSEDSAVYYCTRGSRGVFDYWGQGTALTVSS VL: DIVMTQSHKFMSTSVGDRVSITCKASQDVGTAVAWYQQKPGQSPKLLIYWASARHTGVPDRFTGSGSGTDFTLTISNVQSEDLADYFCQHYFNFPRTFGGGTKLEIT and report
0.331 ratio to isotype control

// repeat for anti-IL18BP antibody BP-07 (antibody, human IgG1, V domains shown) VH: EVQLQQSGPELVKPGASVKISCRASGFTITDYNMDWVRQSHGKSLEWIGNINLNNGGSIYNQKFKGKATLTIDKSSSTAYMELRSLTSEDTAVYYCARSDTTVVASRYYAMDYWGQGTSVTVSS VL: DIVLTQSPASLAMSLGKRATISCRASESVSIIGTNLIHWYQQKPGQPPKLLIYHASNLETGVPVRFSGSGSRTDFTLTIDPVEEDDVAIYYCLQSRKIPPTFGGGTKLEIK and report
0.999 ratio to isotype control

// repeat for anti-IL18BP antibody BP-09 (antibody, human IgG1, V domains shown) VH: QVQLQQSGAELVRPGASVTLSCKASGYRFTDYAMHWVKQTPVHGLQWIGIIDPETGDTAFNQKFKGKATLTADKSSSTAYMELSSLTSEDSAVYYCTRPRGAMDYWGQGTSVTVSS VL: DIVMTQSHKFMSTSGGDRVSITCKASQDVGTAVAWYQQKPGISPKLLIYWASTRHTGVPDRFTGSGSGTDFTLAISNVQSEDLADYFCQQYSSHPYTFGGGTKLEIK and report
0.315 ratio to isotype control

// repeat for anti-IL18BP antibody BP-06 (antibody, human IgG1, V domains shown) VH: QIQLQQSGPELVKPGASVKISCKASGYTFTDYYLNWVKQTPGQGLEWIGWIYPGSGNTKYTEKFKDKASLTVDTSSNTAYMQLSSLTSDDTAVYFCARRGVAWFAYWGQGTLVTVSA VL: DIKMTQSPSSIYASLGERVTITCKASQDINSYLSWFQQKPGKSPKTLIHRANRLVDGVPSRFSGSGSGQDYSLTISSLEYEDMGIYYCLQHDDFPPTFGAGTNLELK and report
0.378 ratio to isotype control

// repeat for anti-IL18BP antibody BP-08 (antibody, human IgG1, V domains shown) VH: QVQLQQPGAELVKPGASVKLSCKVSGYTFTSYWMHWVKQRPGQGLEWIGMIDPNSDSSRYNEKFKNRATLTADKSSSTAFMQFSSLTSEDSAVYYCARSRLGQDYWGQGTTLTVSS VL: DIVMTQSHKFMSTSVGDRVSITCKASQDVSTAVAWYQQKPGQSPKLLIYWASTRHTGVPDRFTGSESGTDYTLIISSVQAEDLALYYCQQHFSTPYTFGGGTKLEIK and report
0.478 ratio to isotype control

// repeat for anti-IL18BP antibody BP-12 (antibody, human IgG1, V domains shown) VH: EVQLQQSGPELVKPGASVKMSCKTSGYTFTEYTMHWVKQSHGKSLEWIGGVNPNNGGTTYNQKFRDKATLTVDKSSSTTYMEVRTLTSDDSAVYYCAPLWRVFDYWGQGTTLTVSS VL: DIVMTQSHKFMSSSVGDRVSITCKASQDVGTAVAWYQQKPGQSPKLLIYWASTRHTGVPDRFTGSGSGTDFTLTISNVQSEDLADYFCHQFSRYPLTFGAGTKLELK and report
0.36 ratio to isotype control
